Quick note: these are pIC50 numbers for system: Voltage-gated inwardly rectifying potassium channel KCNH2 (Homo sapiens, UniProt Q12809)
Sequence (Q12809 whole entry): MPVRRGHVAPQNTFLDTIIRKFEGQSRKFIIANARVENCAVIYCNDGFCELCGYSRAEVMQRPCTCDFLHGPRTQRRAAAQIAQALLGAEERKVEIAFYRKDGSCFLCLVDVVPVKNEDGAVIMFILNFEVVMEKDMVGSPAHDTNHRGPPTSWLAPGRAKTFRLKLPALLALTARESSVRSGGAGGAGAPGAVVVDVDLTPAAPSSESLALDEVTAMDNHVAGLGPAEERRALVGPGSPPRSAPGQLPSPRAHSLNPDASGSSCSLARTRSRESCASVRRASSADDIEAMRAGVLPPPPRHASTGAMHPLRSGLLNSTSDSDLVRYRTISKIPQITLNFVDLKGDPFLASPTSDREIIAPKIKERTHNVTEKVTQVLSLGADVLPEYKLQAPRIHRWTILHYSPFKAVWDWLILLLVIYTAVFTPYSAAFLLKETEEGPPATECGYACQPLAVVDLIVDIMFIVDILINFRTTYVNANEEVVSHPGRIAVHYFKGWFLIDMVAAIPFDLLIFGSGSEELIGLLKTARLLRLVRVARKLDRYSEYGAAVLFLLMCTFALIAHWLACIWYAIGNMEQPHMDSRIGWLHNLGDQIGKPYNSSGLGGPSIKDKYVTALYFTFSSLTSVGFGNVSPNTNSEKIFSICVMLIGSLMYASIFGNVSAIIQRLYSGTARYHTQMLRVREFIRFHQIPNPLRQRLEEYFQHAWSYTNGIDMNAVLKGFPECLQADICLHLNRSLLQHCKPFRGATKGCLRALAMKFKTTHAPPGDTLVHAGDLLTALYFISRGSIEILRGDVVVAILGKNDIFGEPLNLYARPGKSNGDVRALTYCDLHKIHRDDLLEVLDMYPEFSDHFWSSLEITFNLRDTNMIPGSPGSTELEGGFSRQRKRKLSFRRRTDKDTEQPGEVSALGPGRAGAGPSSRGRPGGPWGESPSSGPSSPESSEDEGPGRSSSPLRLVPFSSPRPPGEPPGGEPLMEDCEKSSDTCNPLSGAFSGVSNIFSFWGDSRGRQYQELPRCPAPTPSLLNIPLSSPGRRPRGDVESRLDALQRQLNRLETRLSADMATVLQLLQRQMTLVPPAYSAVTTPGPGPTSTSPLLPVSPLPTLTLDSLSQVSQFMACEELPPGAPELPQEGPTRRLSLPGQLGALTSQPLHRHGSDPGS
pIC50: −log10 of the molar value.

Recorded pIC50, per entry:
>>> recorded_measurement("C[C@@H](NC(=O)c1nc(-c2cc(C(F)(F)F)ccn2)nc(O)c1O)C1CCCCC1")
"< 4.52"
>>> recorded_measurement("COc1ccnc(-c2nc(O)c(O)c(C(=O)N[C@H](C)C3CCCCC3)n2)c1")
"< 4.52"
>>> recorded_measurement("C[C@@H](NC(=O)c1nc(-c2nccc3ccccc23)nc(O)c1O)C1CCCCC1")
"< 4.52"

Turning now to a further record.
Incoming: // lookup pIC50 | system=Voltage-gated inwardly rectifying potassium channel KCNH2 (Homo sapiens, UniProt Q12809) | key= C[C@@H](NC(=O)c1nc(-c2cc(Cl)ccn2)nc(O)c1O)C1CCCCC1
Outgoing: < 4.52

Hello, the source for this data is ChEMBL document CHEMBL4613292, in case you need it.
